Measured values drawn from patent US20250340522A1 for this set.

Tested on: S. typhimurium TA100
QUANTITY: MIC (µg/mL)

[
  {
    "SMILES ENTRY": "COc1c(NC(=O)c2ccc(NC(=O)c3ccc(NC(=O)[C@H](Cc4c[nH]nn4)NC(=O)c4ccc(NC(=O)/C(C)=C/c5ccc(O)cc5)cc4)cc3I)c(OC)c2O)ccc(C(=O)O)c1O",
    "QUANTITY": "MIC",
    "VALUE MODIFIER": "=",
    "OBSERVED MEASUREMENT": 0.031
  },
  {
    "SMILES ENTRY": "COc1c(NC(=O)c2ccc(NC(=O)c3ccc(NC(=O)[C@H](Cc4c[nH]nn4)NC(=O)c4ccc(NC(=O)/C(C)=C/c5ccc(O)cc5)cc4)cc3Cl)c(OC)c2O)ccc(C(=O)O)c1O",
    "QUANTITY": "MIC",
    "VALUE MODIFIER": "≤",
    "OBSERVED MEASUREMENT": 0.016
  },
  {
    "SMILES ENTRY": "COc1c(NC(=O)c2ccc(NC(=O)c3ccc(NC(=O)[C@H](Cc4c[nH]nn4)NC(=O)c4ccc(NC(=O)/C(C)=C/c5ccc(O)cc5)cc4)cc3C(F)(F)F)c(OC)c2O)ccc(C(=O)O)c1O",
    "QUANTITY": "MIC",
    "VALUE MODIFIER": "=",
    "OBSERVED MEASUREMENT": 0.031
  }
]
